// reported kon for each item listed
Biological target: T1, hGITR.mmh (human)
T1 construct: soluble monomeric construct; also called human (h) GITR.mmh; monomeric human GITR
T1 chain: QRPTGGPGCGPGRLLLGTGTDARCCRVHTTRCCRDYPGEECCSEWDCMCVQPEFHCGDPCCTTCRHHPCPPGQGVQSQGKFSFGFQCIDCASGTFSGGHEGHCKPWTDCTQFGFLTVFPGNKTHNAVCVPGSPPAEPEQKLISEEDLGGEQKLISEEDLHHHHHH
Assay: SPR 37C, mAb capture
Give the number; M⁻¹ s⁻¹ is assumed, so skip it.

# annotated cases, reported kon shown
{"columns": ["binder", "kon (M⁻¹ s⁻¹)"],
 "data": [
  ["H1H14474P (antibody, human IgG1, V domains shown, human IgG1 (H1H)) VH: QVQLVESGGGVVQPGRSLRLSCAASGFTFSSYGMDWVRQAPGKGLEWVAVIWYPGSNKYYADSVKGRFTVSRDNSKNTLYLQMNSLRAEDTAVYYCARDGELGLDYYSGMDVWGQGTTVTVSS VL: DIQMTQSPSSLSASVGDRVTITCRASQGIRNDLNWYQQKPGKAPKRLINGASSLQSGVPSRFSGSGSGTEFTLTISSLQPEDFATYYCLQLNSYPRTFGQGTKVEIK", 591000],
  ["H4H14528P (antibody, human IgG4, V domains shown, human IgG4 (H4H)) VH: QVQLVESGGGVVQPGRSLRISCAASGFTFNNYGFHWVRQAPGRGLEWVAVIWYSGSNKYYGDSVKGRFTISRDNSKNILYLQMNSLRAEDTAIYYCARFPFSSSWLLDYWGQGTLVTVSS VL: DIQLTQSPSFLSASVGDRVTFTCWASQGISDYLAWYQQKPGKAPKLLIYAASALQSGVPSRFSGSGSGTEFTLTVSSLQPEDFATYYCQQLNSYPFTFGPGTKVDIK", 102000]
]}

// below: kon requested for another binder
Given H4H14521P (antibody, human IgG4, V domains shown, human IgG4 (H4H)) VH: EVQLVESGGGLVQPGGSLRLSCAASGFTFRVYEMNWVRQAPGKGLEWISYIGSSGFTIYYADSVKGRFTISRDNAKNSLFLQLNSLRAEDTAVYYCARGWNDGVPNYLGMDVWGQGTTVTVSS VL: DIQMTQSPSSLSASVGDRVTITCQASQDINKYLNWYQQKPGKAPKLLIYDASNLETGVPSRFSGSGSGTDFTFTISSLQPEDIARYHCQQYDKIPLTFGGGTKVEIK , state its recorded kon. 345000

Source of measurements: patent US20170355774A1
